# study system: T1, FOXP2 LZ-END (UniProt O15409 372-715)
# T1 sequence: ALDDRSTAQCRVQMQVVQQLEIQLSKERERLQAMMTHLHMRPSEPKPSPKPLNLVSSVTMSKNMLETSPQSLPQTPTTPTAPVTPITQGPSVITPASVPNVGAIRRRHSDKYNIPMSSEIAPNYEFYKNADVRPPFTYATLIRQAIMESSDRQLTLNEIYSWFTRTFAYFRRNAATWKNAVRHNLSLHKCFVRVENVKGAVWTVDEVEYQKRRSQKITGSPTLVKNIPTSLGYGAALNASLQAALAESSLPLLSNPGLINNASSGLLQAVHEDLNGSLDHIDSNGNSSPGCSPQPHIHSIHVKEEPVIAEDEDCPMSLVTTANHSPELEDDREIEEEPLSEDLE
# assay procedure: fluorescence anisotropy; FA: 10 mM HEPES pH 7.5, 100 mM NaCl, 0.02% NaN3, 500 nM DNA, temperature not stated; EMSA: 10 mM HEPES pH 7.5, 1 mM MgCl2, 100 mM KCl, 10% glycerol, 0.1 mg/ml BSA, 500 nM DNA, on ice, gel at 4 C
# study conditions: protein: recombinant; (purified by nickel IMAC); chain copies: 8; blunt

[
  {
    "binder": "FOXP2 cognate DNA, ROX-labelled (dsDNA) DNA 1: TTAGGTGTTTACTTTCATAG DNA 2: CTATGAAAGTAAACACCTAA",
    "Kd [nM]": 326
  }
]
